// data source = patent US7662832B2

- assay-system: Proton Pump (H^+/K^+-ATPase) (Sus scrofa, UniProt P19156)
- Sequence (P19156 2-1034 limits assumed): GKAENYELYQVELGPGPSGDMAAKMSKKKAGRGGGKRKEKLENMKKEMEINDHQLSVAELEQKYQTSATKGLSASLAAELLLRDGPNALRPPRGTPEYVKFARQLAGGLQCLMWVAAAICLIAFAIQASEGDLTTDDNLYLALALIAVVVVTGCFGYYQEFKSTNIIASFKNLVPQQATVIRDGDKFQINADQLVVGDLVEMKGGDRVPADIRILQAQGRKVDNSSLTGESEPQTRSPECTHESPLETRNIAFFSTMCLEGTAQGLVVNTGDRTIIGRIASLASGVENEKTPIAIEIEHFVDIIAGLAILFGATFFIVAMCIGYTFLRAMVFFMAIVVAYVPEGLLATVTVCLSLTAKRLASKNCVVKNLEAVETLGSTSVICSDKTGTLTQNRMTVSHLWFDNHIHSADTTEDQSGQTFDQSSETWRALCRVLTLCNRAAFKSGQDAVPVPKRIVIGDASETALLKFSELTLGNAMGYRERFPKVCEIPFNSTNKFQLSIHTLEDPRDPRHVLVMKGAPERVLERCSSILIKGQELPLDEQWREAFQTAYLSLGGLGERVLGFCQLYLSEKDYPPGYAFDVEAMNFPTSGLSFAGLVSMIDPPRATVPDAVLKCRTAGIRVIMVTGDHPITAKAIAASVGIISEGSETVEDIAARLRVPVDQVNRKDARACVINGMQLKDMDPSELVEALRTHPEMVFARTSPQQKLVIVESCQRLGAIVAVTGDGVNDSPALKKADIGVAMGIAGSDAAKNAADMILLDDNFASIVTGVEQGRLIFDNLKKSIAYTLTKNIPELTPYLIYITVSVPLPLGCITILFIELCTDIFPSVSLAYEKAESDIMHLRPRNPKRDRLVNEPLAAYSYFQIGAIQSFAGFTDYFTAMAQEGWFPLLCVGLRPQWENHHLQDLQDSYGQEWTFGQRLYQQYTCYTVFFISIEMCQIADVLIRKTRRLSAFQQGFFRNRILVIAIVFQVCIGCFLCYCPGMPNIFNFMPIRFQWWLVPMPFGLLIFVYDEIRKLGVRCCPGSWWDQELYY
- Sequence (P18434 whole entry partner): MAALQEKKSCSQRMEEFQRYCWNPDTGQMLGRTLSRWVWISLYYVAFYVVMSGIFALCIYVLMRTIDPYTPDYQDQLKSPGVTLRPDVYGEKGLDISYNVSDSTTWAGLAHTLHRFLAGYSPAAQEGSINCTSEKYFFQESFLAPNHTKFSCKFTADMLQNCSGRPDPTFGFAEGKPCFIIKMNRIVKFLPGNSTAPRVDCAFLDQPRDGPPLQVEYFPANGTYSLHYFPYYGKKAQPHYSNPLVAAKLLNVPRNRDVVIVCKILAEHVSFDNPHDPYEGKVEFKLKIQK
- method-summary: Inhibitory effects on proton pump (H^+/K^+-ATPase) activity
- condition-set: hog gastric vesicles; K^+ stimulated H^+/K^+-ATPase activity; 30 minutes at 37° C.
Structures can show the parent of a compound that is named as a salt.
Provide the reported IC50 of each item.
Note to self: number, then unit, no commentary.

-- ask Identify IC50 associated with the molecule Cc1c(C)n(CC2CC2)c2c(NCc3ccc(F)cc3)nccc12 [Example 226, hydrochloride]
-- reply 70 nM

-- ask Complete the entry with IC50 for Cc1ccc(OCc2nccc3c(C)c(C)n(Cc4ccccc4)c23)cc1 [Example 15, hydrochloride]
-- reply 140 nM

-- ask Using known records, supply IC50 for COc1cccc(Cn2c(C)c(C)c3cc(C(=O)N4CCNCC4)nc(N4CCc5ccccc5C4)c32)c1 [Example 822, hydrochloride]
-- reply 23 nM

-- ask For the molecule COc1cccc(Cn2c(C)c(C)c3cc(C(=O)N4CCC(C)CC4)nc(N4CCc5ccccc5C4)c32)c1 [Example 823, hydrochloride] , give its measured IC50 value.
-- reply 216 nM

-- ask Recall and state the measured IC50 for Cc1ccc(Cn2c(C)c(C)c3ccnc(CCc4ccccc4)c32)cc1 [Example 444, hydrochloride] .
-- reply 122 nM

-- ask Provide measured IC50 value, entry: Cc1c(C)n(Cc2cccc(F)c2)c2c(N(C)Cc3ccc(F)cc3)nccc12 [Example 159, hydrochloride]
-- reply 90 nM

-- ask Identify measured IC50 corresponding to Cc1c(C)n(Cc2ccccc2)c2c(CCc3ccccc3)nccc12 [Example 442, hydrochloride]
-- reply 100 nM

-- ask Give recorded IC50. Cc1[nH]c2c(NCc3ccc(F)cc3)nc(C#N)cc2c1C [Example 910, hydrochloride]
-- reply 393 nM

-- ask Consider the molecule CCn1c(C)c(C)c2cc(C(=O)N3CCN(C)CC3)nc(N3CCc4ccccc4C3)c21 [Example 782, hydrochloride] . State its measured IC50.
-- reply 1 nM

-- ask Give the measured IC50 for CCn1c(C)c(C)c2ccnc(N3CCc4ccccc4C3C3CC3)c21 (stereo not drawn) [Example 569, hydrochloride]
-- reply 500 nM

-- ask Tell me IC50 reported for C=CCn1c(C)c(C)c2ccnc(N3CCc4ccccc4C3C3CC3)c21 (stereo not drawn) [Example 570, hydrochloride]
-- reply 120 nM

-- ask Return value of IC50 for input Cc1c(C)n(Cc2ccc3ccccc3c2)c2c(N3CCc4ccccc4C3)nccc12 [Example 502, hydrochloride] , no commentary.
-- reply 300 nM

-- ask Tell us which IC50 value is on record for Cc1nc(Cn2c(C)c(C)c3ccnc(N4CCc5ccc(Cl)cc5C4C)c32)cs1 (stereo not drawn) [Example 538, hydrochloride]
-- reply 244 nM

-- ask Please report the measured IC50 for C=CCn1c(C)c(C)c2ccnc(-c3ccc(Cl)cc3)c21 [Example 300, hydrochloride]
-- reply 173 nM

-- ask Given CC(C)=CCn1c(C)c(C)c2ccnc(N3CCc4ccc(F)cc4C3C)c21 (stereo not drawn) [Example 545, hydrochloride] , respond with its IC50.
-- reply 190 nM
